Just for reference, the supplement of paper PMC9112550 is where these values come from.

Can you tell me shrunken log2 fold change for the items I'm about to list?
Tested on: Escherichia coli TOP10
Protocol notes: shrunken log2 fold change of peptide-encoding DNA abundance (4.5 h post-induction vs induction); higher = less antimicrobial activity (less host growth inhibition)
Stated conditions: time post-induction: 4.5 h; library: site-saturation at positions 5, 18, 19, 20
Answers are plain numbers.

In the examples that follow, each entry is paired with its recorded shrunken log2 fold change.
| Chain sequence | shrunken log2 fold change |
| --- | --- |
| RRIRPRPPRLPRPRPRPHDGPRP | -0.0292 |
| RRIRRRPPRLPRPRPRPFWVPRP | 0.236 |
| RRIRHRPPRLPRPRPRPFRAPRP | -0.211 |
| RRIRCRPPRLPRPRPRPFHQPRP | -0.429 |
| RRIRIRPPRLPRPRPRPDHYPRP | -0.38 |
| RRIRVRPPRLPRPRPRPVMRPRP | 0.269 |
| RRIRSRPPRLPRPRPRPYKYPRP | -0.637 |

As a next step, examine the sequence that follows.
Consider the sequence shown here: RRIRNRPPRLPRPRPRPCTHPRP What is its recorded shrunken log2 fold change? -0.147

* * *

System: Escherichia coli TOP10
Protocol notes: shrunken log2 fold change of peptide-encoding DNA abundance (4.5 h post-induction vs induction); higher = less antimicrobial activity (less host growth inhibition)
Stated conditions: time post-induction: 4.5 h; library: site-saturation at positions 5, 18, 19, 20
Parameter: shrunken log2 fold change

In the examples that follow, each entry is paired with its recorded shrunken log2 fold change.
| Chain sequence | shrunken log2 fold change |
| --- | --- |
| RRIRGRPPRLPRPRPRPGCWPRP | 1.39 |
| RRIRIRPPRLPRPRPRPYTAPRP | -1.28 |
| RRIRSRPPRLPRPRPRPGSIPRP | -0.0732 |

Provide shrunken log2 fold change for all items below, preserving their order.
1. RRIRERPPRLPRPRPRPATHPRP
2. RRIRRRPPRLPRPRPRPTCRPRP
3. RRIRNRPPRLPRPRPRPFIDPRP
4. RRIRERPPRLPRPRPRPSACPRP
5. RRIRRRPPRLPRPRPRPAPKPRP

1. -0.264
2. 0.41
3. -0.114
4. 0.0132
5. 0.905

* * *

Can you tell me shrunken log2 fold change for the items I'm about to list?
System: Escherichia coli TOP10
Protocol notes: shrunken log2 fold change of peptide-encoding DNA abundance (4.5 h post-induction vs induction); higher = less antimicrobial activity (less host growth inhibition)
Stated conditions: time post-induction: 4.5 h; library: site-saturation at positions 5, 18, 19, 20
One number for each entry.

In the examples that follow, each entry is paired with its recorded shrunken log2 fold change.
| Chain sequence | Obs value |
| --- | --- |
| RRIRFRPPRLPRPRPRPPEYPRP | -0.0154 |
| RRIRQRPPRLPRPRPRPMTYPRP | -0.0223 |
| RRIRLRPPRLPRPRPRPRNRPRP | 0.267 |

Provide shrunken log2 fold change for all items below, preserving their order.
1. RRIRERPPRLPRPRPRPSHWPRP
2. RRIRERPPRLPRPRPRPSMHPRP
3. RRIRTRPPRLPRPRPRPENSPRP
4. RRIRKRPPRLPRPRPRPMYDPRP
5. RRIRLRPPRLPRPRPRPVAIPRP

[-0.292, -0.451, 0.032, -0.127, 0.0902]

* * *

Test system: Escherichia coli TOP10
Protocol notes: shrunken log2 fold change of peptide-encoding DNA abundance (4.5 h post-induction vs induction); higher = less antimicrobial activity (less host growth inhibition)
Stated conditions: time post-induction: 4.5 h; library: site-saturation at positions 5, 18, 19, 20
Classify as follows. Reported shrunken log2 fold change greater than or equal to -0.1: condition met. Reported shrunken log2 fold change below: condition not met.

| Chain sequence | Group |
| --- | --- |
| RRIRIRPPRLPRPRPRPMTTPRP | condition met |
| RRIRERPPRLPRPRPRPIALPRP | condition met |
| RRIRIRPPRLPRPRPRPFPHPRP | condition not met |
| RRIRKRPPRLPRPRPRPNPWPRP | condition met |
| RRIRERPPRLPRPRPRPSPNPRP | condition not met |
| RRIRRRPPRLPRPRPRPEDCPRP | condition met |

Identify whether the reported shrunken log2 fold change of the following sequence is -0.1 or greater: RRIRTRPPRLPRPRPRPAKVPRP condition not met

Input RRIRWRPPRLPRPRPRPREPPRP condition met

Input RRIRMRPPRLPRPRPRPSYGPRP condition met

Input RRIRMRPPRLPRPRPRPGPHPRP condition met

Input RRIRVRPPRLPRPRPRPGRGPRP condition met

Input RRIRSRPPRLPRPRPRPQCGPRP condition not met

* * *

System: Escherichia coli TOP10
Protocol notes: shrunken log2 fold change of peptide-encoding DNA abundance (4.5 h post-induction vs induction); higher = less antimicrobial activity (less host growth inhibition)
Stated conditions: time post-induction: 4.5 h; library: site-saturation at positions 5, 18, 19, 20
Parameter: shrunken log2 fold change

In the examples that follow, each entry is paired with its recorded shrunken log2 fold change.
| Chain sequence | Tested target | shrunken log2 fold change |
| --- | --- | --- |
| RRIRERPPRLPRPRPRPLAWPRP | Escherichia coli TOP10 | 0.039 |
| RRIRSRPPRLPRPRPRPVQWPRP | Escherichia coli TOP10 | 0.175 |
| RRIRGRPPRLPRPRPRPNFEPRP | Escherichia coli TOP10 | 1.87 |
| RRIRSRPPRLPRPRPRPRVAPRP | Escherichia coli TOP10 | 0.179 |
| RRIRGRPPRLPRPRPRPMFKPRP | Escherichia coli TOP10 | 0.0694 |
| RRIRARPPRLPRPRPRPGYPPRP | Escherichia coli TOP10 | 0.0269 |
| RRIRYRPPRLPRPRPRPWSEPRP | Escherichia coli TOP10 | -0.117 |
| RRIRERPPRLPRPRPRPTQTPRP | Escherichia coli TOP10 | -0.00311 |

Provide shrunken log2 fold change for all items below, preserving their order.
1. RRIRLRPPRLPRPRPRPWYLPRP
2. RRIRKRPPRLPRPRPRPENDPRP
3. RRIRVRPPRLPRPRPRPFLFPRP
4. RRIRMRPPRLPRPRPRPKFIPRP
5. RRIRFRPPRLPRPRPRPHKFPRP

[-0.759, -0.0386, -0.205, -0.182, -0.5]

* * *

System: Escherichia coli TOP10
Protocol notes: shrunken log2 fold change of peptide-encoding DNA abundance (4.5 h post-induction vs induction); higher = less antimicrobial activity (less host growth inhibition)
Stated conditions: time post-induction: 4.5 h; library: site-saturation at positions 5, 18, 19, 20
Can you tell me shrunken log2 fold change for the items I'm about to list?
Numbers only.

In the examples that follow, each entry is paired with its recorded shrunken log2 fold change.
| Chain sequence | Parameter | Obs value |
| --- | --- | --- |
| RRIRRRPPRLPRPRPRPEQKPRP | shrunken log2 fold change | 0.0588 |
| RRIRKRPPRLPRPRPRPVTNPRP | shrunken log2 fold change | -0.0569 |
| RRIRMRPPRLPRPRPRPRDDPRP | shrunken log2 fold change | 0.202 |
| RRIRVRPPRLPRPRPRPYWEPRP | shrunken log2 fold change | -0.508 |
| RRIRWRPPRLPRPRPRPTEHPRP | shrunken log2 fold change | -0.093 |

Provide shrunken log2 fold change for all items below, preserving their order.
1. RRIRSRPPRLPRPRPRPLNFPRP
2. RRIRYRPPRLPRPRPRPPIWPRP
3. RRIRLRPPRLPRPRPRPLECPRP
4. RRIRARPPRLPRPRPRPNLFPRP
5. RRIRCRPPRLPRPRPRPLWWPRP

[-0.305, -0.0337, 0.184, -0.0329, 0.204]

Provide shrunken log2 fold change for all items below, preserving their order.
1. RRIRDRPPRLPRPRPRPLSYPRP
2. RRIRLRPPRLPRPRPRPYMEPRP
3. RRIRLRPPRLPRPRPRPGTVPRP
4. RRIRTRPPRLPRPRPRPQMKPRP
5. RRIRHRPPRLPRPRPRPREIPRP
6. RRIRSRPPRLPRPRPRPNMAPRP

[0.194, 0.039, -0.0516, -0.449, 0.0735, -0.0738]

* * *

Tested on: Escherichia coli TOP10;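 note: peptides expressed intracellularly from a pBAD plasmid library in pooled LB shake-flask culture, induced with 0.3% L-arabinose, DNA abundance read by NGS, three biological replicates, DESeq2 with apeglm shrinkage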
Protocol notes: shrunken log2 fold change of peptide-encoding DNA abundance (4.5 h post-induction vs induction); higher = less antimicrobial activity (less host growth inhibition)
Stated conditions: time post-induction: 4.5 h; library: site-saturation at positions 5, 18, 19, 20
Parameter: shrunken log2 fold change
One number for each entry.

Provide shrunken log2 fold change for all items below, preserving their order.
1. RRIRGRPPRLPRPRPRPDGHPRP
2. RRIRSRPPRLPRPRPRPPQGPRP
3. RRIRCRPPRLPRPRPRPQNHPRP

[0.471, 0.39, -0.612]

Provide shrunken log2 fold change for all items below, preserving their order.
1. RRIRHRPPRLPRPRPRPMRFPRP
2. RRIRPRPPRLPRPRPRPMVAPRP
3. RRIRGRPPRLPRPRPRPCGNPRP
4. RRIRRRPPRLPRPRPRPVPCPRP
5. RRIRQRPPRLPRPRPRPTMGPRP

1: -0.00752; 2: 0.208; 3: 0.255; 4: 0.0337; 5: -0.0283

Provide shrunken log2 fold change for all items below, preserving their order.
1. RRIRGRPPRLPRPRPRPTSPPRP
2. RRIRWRPPRLPRPRPRPGTAPRP
3. RRIRQRPPRLPRPRPRPIWEPRP
4. RRIRCRPPRLPRPRPRPEESPRP
5. RRIRMRPPRLPRPRPRPFVSPRP
6. RRIRGRPPRLPRPRPRPMMTPRP
7. RRIRFRPPRLPRPRPRPNHEPRP
8. RRIRRRPPRLPRPRPRPDSEPRP

0.491
0.392
0.0296
-0.00538
-0.0194
3.31
-0.56
0.036
